target: T. gondii CDPK1 (tgCDPK1) (Toxoplasma gondii, UniProt Q9BJF5); assay: Inhibition of T. gondii CDPK1 (tgCDPK1), IC50 determination; conditions: at least three independent replicates per compound
Sequence (Q9BJF5 1-507): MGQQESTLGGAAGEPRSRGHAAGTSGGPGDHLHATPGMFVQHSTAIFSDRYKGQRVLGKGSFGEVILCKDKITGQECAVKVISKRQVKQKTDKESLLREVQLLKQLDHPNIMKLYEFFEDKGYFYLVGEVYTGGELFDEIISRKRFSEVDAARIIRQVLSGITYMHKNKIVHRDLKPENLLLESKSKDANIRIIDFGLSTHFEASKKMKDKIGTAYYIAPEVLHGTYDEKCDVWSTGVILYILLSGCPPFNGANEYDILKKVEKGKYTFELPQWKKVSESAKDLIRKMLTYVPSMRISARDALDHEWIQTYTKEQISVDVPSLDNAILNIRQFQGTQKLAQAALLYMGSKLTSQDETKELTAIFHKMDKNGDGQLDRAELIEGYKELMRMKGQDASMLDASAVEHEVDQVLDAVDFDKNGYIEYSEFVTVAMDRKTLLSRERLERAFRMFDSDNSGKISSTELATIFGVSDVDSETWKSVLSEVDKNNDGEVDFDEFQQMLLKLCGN
MEASURED_PARAMETER: IC50 (nM)
Respond with the bare value in nM.

Take a look at these entries with their results.
MOLECULE: Nc1ncnc2c1c(Cc1cccc(-c3ccncc3)c1)nn2C1CC1
UNIT_OF_MEASURE: nM
QUANTITATIVE_READOUT: 1170
--
MOLECULE: Nc1ncnc2c1c(Cc1cccc(-c3cncnc3)c1)nn2C1CC1
UNIT_OF_MEASURE: nM
QUANTITATIVE_READOUT: 373

molecule Nc1ncnc2c1c(C(O)c1cccnc1)nn2C1CC1 (centres unmarked) , IC50 observed: 4870

molecule "Nc1ncnc2c1c(Cc1cccc(Cl)c1)nn2C1CCC1" , IC50 observed: 8.7

molecule Nc1ncnc2c1c(C(O)c1ccccc1)nn2C1CC1 (centres unmarked) , IC50 observed: 1750
